// data source = the supplement of paper PMC11451515

Tested on: P12-Ichikawa
Assay: cell viability relative to DMSO control; higher = less cytotoxic
Details: HPLM + 10% dialyzed FBS; 48 h; 1.71 µM

COMPOUND: NC(CO)(CO)CCc1ccc(Sc2cccc(OCc3ccccc3)c2)cc1Cl
cell viability (%): 106

COMPOUND: CC(C)[C@@H](C[S+](=O)([O-])C(C)C)N1C(=O)[C@@](C)(CC(=O)O)C[C@H](c2cccc(Cl)c2)[C@H]1c1ccc(Cl)cc1
cell viability (%): 14

COMPOUND: O=C(CO)N1CCC(c2n[nH]c(-c3ccc(Cl)cc3)c2-c2ccncn2)CC1
cell viability (%): 100

COMPOUND: Cc1cc(Nc2nc(N[C@@H](C)c3ncc(F)cn3)ncc2Cl)n[nH]1
cell viability (%): 108

COMPOUND: CCC(=O)OCC(=O)[C@@]1(OC(=O)CC)[C@@H](C)C[C@H]2[C@@H]3CCC4=CC(=O)C=C[C@]4(C)[C@@]3(F)[C@@H](O)C[C@@]21C
cell viability (%): 65.9

COMPOUND: CC\1=C(C(=O)N(\C=C1)C2=CC=C(C=C2)C3=NC=CO3)/C4=CC5=CN=C(N)N=C5C=C4
cell viability (%): 117

COMPOUND: CN1CCC(CC1)COC2=CN=C(N=C2)C3=CC(=CC=C3)CN4/N=C(\C=C/C4=O)C5=CC(=CC=C5)C#N
cell viability (%): 123

COMPOUND: CC(C)C[C@H](NC(=O)[C@@H](NC(=O)c1cccc(-c2ccccc2)n1)[C@@H](C)O)B(O)O
cell viability (%): 6.5

COMPOUND: O=C(NC[C@H]1CN(c2ccc(N3CCOCC3=O)cc2)C(=O)O1)c1ccc(Cl)s1
cell viability (%): 114

COMPOUND: CNC1[C@@H](O)C(O[C@@H]2C(O)C(O[C@H]3O[C@H]([C@@H](C)NC)CC[C@H]3N)[C@@H](N)C[C@H]2N)OC[C@]1(C)O (some centres not stated)
cell viability (%): 98.6

COMPOUND: OC(=O)\C1=C\N(C2=CC=C(F)C=C2)C3=C(C=C(F)C(=C3)N4CCNCC4)C1=O
cell viability (%): 115

COMPOUND: Oc1ccc(C2CCN(c3ccnc4ccccc34)CC2)cc1O
cell viability (%): 106

COMPOUND: Cc1nccn1CC1CCc2c(c3ccccc3n2C)C1=O (configuration not stated)
cell viability (%): 106

COMPOUND: CCOC(=O)N1CCN(/[N+]([O-])=N/Oc2ccc([N+](=O)[O-])cc2[N+](=O)[O-])CC1
cell viability (%): 97

COMPOUND: Cn1c(Nc2ccc(C(F)(F)F)cc2)nc2cc(Oc3ccnc(-c4nc(C(F)(F)F)c[nH]4)c3)ccc21
cell viability (%): 123

COMPOUND: Cc1c(Cn2c(C)nc3c(C(=O)O)cc(N4CCOCC4)cc32)cccc1C(F)(F)F
cell viability (%): 106

COMPOUND: CCNC(=O)c1cc2c(-c3cc(OCCN4CCCC4)c(Cl)cc3Cl)nc(N)nc2s1
cell viability (%): 92.8

COMPOUND: Oc1ccc(/C=C/c2cc(O)cc(O)c2)cc1
cell viability (%): 103

COMPOUND: CCn1c(-c2nonc2N)nc2cncc(CNC3CCNCC3)c21
cell viability (%): 104

COMPOUND: CN(C/C=C/C#CC(C)(C)C)Cc1cccc2ccccc12
cell viability (%): 90.6

COMPOUND: CCOc1cc(N)c(Cl)cc1C(=O)NCC1CN(Cc2ccc(F)cc2)CCO1 (configuration not stated)
cell viability (%): 100

COMPOUND: [NH2][Pt]([NH2])([Cl])[Cl]
cell viability (%): 98.2

COMPOUND: CC(=O)Nc1ccc([C@H](C)C(=O)Nc2ncc(C(C)C)s2)cc1
cell viability (%): 94.4

COMPOUND: O=C(O)c1ccc(-n2nc(-c3ccccc3O)nc2-c2ccccc2O)cc1
cell viability (%): 99.9

COMPOUND: c1cc(CN2CCCNCCNCCCNCC2)ccc1CN1CCCNCCNCCCNCC1
cell viability (%): 102

COMPOUND: ClC1=CC(=CC=C1)N2CCN(CCCN3\N=C4\C=C/C=C\N4C3=O)CC2
cell viability (%): 142

COMPOUND: OC[C@H]1O[C@H]([C@@H](F)[C@@H]1O)N2\C=C/C(=O)NC2=O
cell viability (%): 102

COMPOUND: N=C(N)NC(=O)c1nc(Cl)c(N)nc1N
cell viability (%): 120

COMPOUND: CN(C)CCc1c[nH]c2ccc(C[C@H]3COC(=O)N3)cc12
cell viability (%): 112

COMPOUND: CC(=O)N1CCN(c2ccc(OCc3nn(C)c(C)c3-c3cccc4c(CCCOc5cccc6ccccc56)c(C(=O)O)n(Cc5cccnc5)c34)cc2)CC1
cell viability (%): 122

COMPOUND: COc1cc(Nc2ncc(F)c(Nc3ccc4c(n3)NC(=O)C(C)(C)O4)n2)cc(OC)c1OC
cell viability (%): 101

COMPOUND: CC1=CC=CC=C1CN2C(=O)C/3=C(/CCN(CC4=CC=CC=C4)C3)N\5CC\N=C25
cell viability (%): 106
